tested on: Escherichia coli TOP10; experiment: shrunken log2 fold change of peptide-encoding DNA abundance (4.5 h post-induction vs induction); higher = less antimicrobial activity (less host growth inhibition); details: time post-induction: 4.5 h; library: site-saturation at positions 5, 18, 19, 20;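 note: peptides expressed intracellularly from a pBAD plasmid library in pooled LB shake-flask culture, induced with 0.3% L-arabinose, DNA abundance read by NGS, three biological replicates, DESeq2 with apeglm shrinkage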
Below is a list of entries, each paired with its recorded shrunken log2 fold change value.
Test Readout: shrunken log2 fold change

INSERT INTO assay_data (biosequence, measured) VALUES
  ('RRIRKRPPRLPRPRPRPMYIPRP', -0.0457),
  ('RRIRMRPPRLPRPRPRPKEAPRP', -0.00711),
  ('RRIRTRPPRLPRPRPRPPRFPRP', 0.219),
  ('RRIRDRPPRLPRPRPRPEDVPRP', -0.0018),
  ('RRIRCRPPRLPRPRPRPTKTPRP', 0.137),
  ('RRIRRRPPRLPRPRPRPMGTPRP', 0.241),
  ('RRIRSRPPRLPRPRPRPCQRPRP', -0.0305),
  ('RRIRKRPPRLPRPRPRPVDRPRP', 0.248);
